target: 5-hydroxytryptamine receptor 3A (Mus musculus); assay: Partial agonist activity at mouse 5-HT3A receptor expressed in HEK293 cells assessed as change in Ca2+ level measured as intrinsic activity at 1 uM relative to 5-HT in presence of carbachol; assay type: cell-based
Items are presented alongside their recorded Activity.
A number alone suffices; assume %.

Reference set (3 entries):
> print(dat)
                                  structure  reported.value
1  O=C1c2cc(Cl)cc3cnn(c23)CCN1[C@@H]1CN2CCC1CC2              27
2  O=C1c2cccc3cnn(c23)CCN1[C@@H]1CN2CCC1CC2              16
3  O=C1c2cc(F)cc3cnn(c23)CCN1[C@@H]1CN2CCC1CC2              31

# input for lookup
Consider the compound COc1cc2c3c(cnn3CCN([C@@H]3CN4CCC3CC4)C2=O)c1 tested on 5-hydroxytryptamine receptor 3A (Mus musculus); state its Activity.
81
